Where do these numbers come from? They come from PubChem BioAssay.

- Procedure Text: stimulators of nuclear beta-catenin in C2C12, primary screen, imaging, WNT3A-conditioned medium, mouse C2C12, NPC library (AID 1117326); also: reference of the scale not given here
- Cond: at 10 µM, hits give high values
So I've got a bunch of molecules here, and I need their nuclear beta-catenin stimulation values.
Give bare numbers, in %.

# annotated cases, reported nuclear beta-catenin stimulation shown
Molecule	Reading Unit	nuclear beta-catenin stimulation
CCNC(=O)NCc1cccc(Cl)c1	%	-1.7
CCOC(CN1CCN(CC(C)C(=O)c2ccccc2)CC1)c1ccccc1 (centres undefined)	%	2.2
O=C(O)Cn1cnnn1	%	0.5

Would you be so kind as to report nuclear beta-catenin stimulation for each listed record?
1. CC(=O)c1ccc(OCC(=O)N2CCCCC2)cc1
2. Cc1onc(-c2ccccc2)c1C(=O)Cl
3. Nc1c2c(nc3ccccc13)CCCC2
4. OCCCc1ccccc1
5. NC(=O)C(=O)N/N=C/c1ccc([N+](=O)[O-])o1
6. CCN(CC)CCOC(=O)C1(c2ccccc2)CCCC1

1.1
0
1.3
1.8
4.5
-1.2

Would you be so kind as to report nuclear beta-catenin stimulation for each listed record?
1. O=S(=O)(O)c1ccc(O)cc1
2. CCCCC(C)(O)CC=C[C@H]1[C@H](O)CC(=O)[C@H]1CCCCCCC(=O)OC (some centres undefined)

[0.1, -0.9]

Would you be so kind as to report nuclear beta-catenin stimulation for each listed record?
1. C/C(=C1\CCOC(=O)S1)N(C=O)Cc1cnc(C)nc1N
2. N/C(=N\N=C\c1ccc(Cl)cc1)N/N=C/c1ccc(Cl)cc1
3. N[C@H](Cc1c[nH]c2ccccc12)C(=O)O

1. -0.3
2. 0.5
3. 0.6

* * *

- System: F380Y/beta2Delta
- Procedure Text: modulators of BK channel variants, profiling panel, selectivity assay, cell-based, U2OS BacMam, thallium flux, beta subunits (AID 1259406);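 also: initial slope of Thallos dye fluorescence rise after thallium is added; log ratio against the mean of 0.3% DMSO vehicle wells on the same plate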
- Cond: at 30 µM
Property Name: log fold change Tl+ flux
Give bare numbers.

# annotated cases, reported log fold change Tl+ flux shown
Compound	Property Name	Measured
OCCN1CCN(CCCN2c3ccccc3Sc3ccc(C(F)(F)F)cc32)CC1	log fold change Tl+ flux	0.167
CC1(C)O[C@@H]2C[C@H]3[C@@H]4CCC5=CC(=O)C=C[C@]5(C)[C@@]4(F)[C@@H](O)C[C@]3(C)[C@]2(C(=O)CO)O1	log fold change Tl+ flux	-0.014
C[C@]12CCC(=O)C=C1CC[C@@H]1[C@@H]2C(=O)C[C@@]2(C)[C@H]1CC[C@]2(O)C(=O)CO	log fold change Tl+ flux	0.0238
CN(C)c1ccc(O)c2c1C[C@H]1C[C@H]3[C@H](N(C)C)C(=O)C(C(N)=O)=C(O)[C@@]3(O)C(=O)C1=C2O	log fold change Tl+ flux	0.045
CS(=O)(=O)OCCCCOS(C)(=O)=O	log fold change Tl+ flux	0.00156

Would you be so kind as to report log fold change Tl+ flux for each listed record?
1. CCCCC1=NC2(CCCC2)C(=O)N1Cc1ccc(-c2ccccc2-c2nn[nH]n2)cc1
2. C#C[C@]1(O)CC[C@H]2[C@@H]3CCC4=CC(=O)CC[C@@H]4[C@H]3CC[C@@]21CC
3. NNC(=O)c1ccncc1

1. 0.0508
2. 0.00649
3. 0.00988

* * *

- Procedure Text: CellTiter-Glo luminescent readout of SW480 viability loss, NPC library primary (AID 1117343)
- Cond: CellTiter-Glo luminescence; at 20 µM (top of the series)
So I've got a bunch of compounds here, and I need their viability decrease (inhibition) values.
Answers are plain numbers, in %.

# annotated cases, reported viability decrease (inhibition) shown
Compound	viability decrease (inhibition) (%)
O=C(O)CNC(=O)c1ccccc1	24.7
CN1CC(=O)NC1=N	-155
CN(C)CCCN1c2ccccc2CCc2ccc(Cl)cc21	61.1
CC(C)CCCC(C)CCCC(C)CCCCC(C)CCCC(C)CCCC(C)C (stereo not drawn)	22.4
O=C(O)c1cc(=O)c2c(OCC(O)COc3cccc4oc(C(=O)O)cc(=O)c34)cccc2o1	19.3

Would you be so kind as to report viability decrease (inhibition) for each listed record?
1. NC[C@@H]1O[C@H](O[C@H]2[C@H](O)[C@H](O[C@H]3[C@@H](O)[C@H](N)C[C@H](N)[C@H]3O[C@H]3O[C@H](CN)[C@H](O)[C@H](O)[C@H]3N)O[C@@H]2CO)[C@@H](N)[C@@H](O)[C@@H]1O
2. CCn1cc(C(=O)O)c(=O)c2cc(F)c(N3CCN(C)CC3)cc21
3. N/C(=N\N=C\c1ccc(Cl)cc1)N/N=C/c1ccc(Cl)cc1
4. CC(C)(C)NCC(O)COc1ccccc1OCC1CCCO1 (stereo not drawn)

1: 31.1; 2: -27.3; 3: 103; 4: 30

Would you be so kind as to report viability decrease (inhibition) for each listed record?
1. CC(C(=O)O)c1ccc(/C=C2\CCCCC2=O)cc1 (stereo not drawn)
2. O[C@@H](c1cc(C(F)(F)F)nc2c(C(F)(F)F)cccc12)[C@H]1CCCCN1
3. Cc1cc2nc3c(=O)[nH]c(=O)nc-3n(C[C@H](O)[C@H](O)[C@H](O)COP(=O)(O)OP(=O)(O)OC[C@H]3O[C@@H](n4cnc5c(N)ncnc54)[C@H](O)[C@H]3O)c2cc1C
4. CCCC(=O)OC[C@@H](OC(=O)CCC)[C@@H](OC(=O)CCC)[C@H](Cn1c2nc(=O)[nH]c(=O)c-2nc2cc(C)c(C)cc21)OC(=O)CCC
5. CCOC(=O)c1c(N)sc2c1CCN(Cc1ccccc1)C2

1: 25.5; 2: 102; 3: 16.1; 4: 25.5; 5: 84.1

Would you be so kind as to report viability decrease (inhibition) for each listed record?
1. O=C(c1ccccc1)c1ccc2n1CCC2C(=O)O (stereo not drawn)
2. CC(C)(C)c1cc(C=O)cc(C(C)(C)C)c1O
3. Cc1cn([C@H]2C[C@H](N=[N+]=[N-])[C@@H](CO)O2)c(=O)[nH]c1=O
4. CCCCCCCCCCCCCCCCN
5. O=S(=O)(O)CCS

[1.1, -22.1, -5.4, 4.5, -2.4]

Would you be so kind as to report viability decrease (inhibition) for each listed record?
1. Nc1ccc(C(=O)OCC(O)CO)cc1 (stereo not drawn)
2. CCCCN1CCCC[C@H]1C(=O)Nc1c(C)cccc1C
3. CC(C)CCC[C@@H](C)[C@H]1CC[C@H]2[C@@H]3CC[C@H]4C[C@@H](O)CC[C@]4(C)[C@@H]3CC[C@]12C
4. c1ccc2[nH]c(-c3cscn3)nc2c1

[-16.3, 21.1, -7.2, -9.9]
